These data points were gathered from patent US6046171A.

Tested on: Staphylococcus aureus A5177
Binary call on MIC with cut-off 3 µg/mL: strictly below means t, and equality or higher means f.

Query string: Please state whether MIC is below 3 µg/mL for `CC[C@H]1OC(=O)[C@H](C)[C@@H](O[C@H]2C[C@@](C)(OC)[C@@H](O)[C@H](C)O2)[C@H](C)[C@@H](O[C@@H]2O[C@H](C)C[C@H](N(C)C)[C@H]2O)[C@@]2(C)C[C@@H](C)C(=O)[C@H](C)[C@H]3N(CCNC(=O)Cc4ccccc4C=CCO2)C(=O)O[C@]13C`
Result string: f

Query string: Please state whether MIC is below 3 µg/mL for `CC[C@H]1OC(=O)[C@H](C)[C@@H](O[C@H]2C[C@@](C)(OC)[C@@H](O)[C@H](C)O2)[C@H](C)[C@@H](O[C@@H]2O[C@H](C)C[C@H](N(C)C)[C@H]2O)[C@@]2(C)C[C@@H](C)C(=O)[C@H](C)[C@H]3N(CC(=O)CC=CCO2)C(=O)O[C@]13C`
Result string: f

Query string: Please state whether MIC is below 3 µg/mL for `CC[C@H]1OC(=O)[C@H](C)C(=O)[C@H](C)[C@@H](O[C@@H]2O[C@H](C)C[C@H](N(C)C)[C@H]2O)[C@@]2(C)C[C@@H](C)C(=O)[C@H](C)[C@H]3N(CC=CCO2)C(=O)O[C@]13C`
Result string: t

Query string: Please state whether MIC is below 3 µg/mL for `CC[C@H]1OC(=O)[C@H](C)C(=O)[C@H](C)[C@@H](O[C@@H]2O[C@H](C)C[C@H](N(C)C)[C@H]2O)[C@@]2(C)C[C@@H](C)C(=O)[C@H](C)[C@H]3N(CCNC(=O)c4ccccc4C=CCO2)C(=O)O[C@]13C`
Result string: t

Query string: Please state whether MIC is below 3 µg/mL for `CC[C@H]1OC(=O)[C@H](C)C(=O)[C@H](C)[C@@H](O[C@@H]2O[C@H](C)C[C@H](N(C)C)[C@H]2O)[C@@]2(C)C[C@@H](C)C(=O)[C@H](C)[C@H]3N(CCC=CCO2)C(=O)O[C@]13C`
Result string: t

Query string: Please state whether MIC is below 3 µg/mL for CC[C@H]1OC(=O)[C@H](C)[C@@H](O[C@H]2C[C@@](C)(OC)[C@@H](O)[C@H](C)O2)[C@H](C)[C@@H](O[C@@H]2O[C@H](C)C[C@H](N(C)C)[C@H]2O)[C@](C)(O)C[C@@H](C)C(=O)[C@H](C)[C@@H](O)[C@]1(C)O [Ery. A, Erythromycin A, reference compound]
Result string: f

Query string: Please state whether MIC is below 3 µg/mL for `CC[C@H]1OC(=O)[C@H](C)[C@@H](O[C@H]2C[C@@](C)(OC)[C@@H](O)[C@H](C)O2)[C@H](C)[C@@H](O[C@@H]2O[C@H](C)C[C@H](N(C)C)[C@H]2O)[C@@]2(C)C[C@@H](C)C(=O)[C@H](C)[C@H]3N(CC=CCO2)C(=O)O[C@]13C`
Result string: f

====

Tested on: Nocardia Asteroides ATCC9970
Assay Metric: MIC (µg/mL)
Record the value in µg/mL, omitting the unit from your answer.

Query string: Given the compound `CC[C@H]1OC(=O)[C@H](C)[C@@H](O[C@H]2C[C@@](C)(OC)[C@@H](O)[C@H](C)O2)[C@H](C)[C@@H](O[C@@H]2O[C@H](C)C[C@H](N(C)C)[C@H]2O)[C@@]2(C)C[C@@H](C)C(=O)[C@H](C)[C@H]3N(CCNC(=O)c4ccccc4CC=CCO2)C(=O)O[C@]13C` , what is its reported MIC?
Result string: 0.1

Query string: Given the compound `CC[C@H]1OC(=O)[C@H](C)C(=O)[C@H](C)[C@@H](O[C@@H]2O[C@H](C)C[C@H](N(C)C)[C@H]2O)[C@@]2(C)C[C@@H](C)C(=O)[C@H](C)[C@H]3N(CCOCc4ccccc4C=CCO2)C(=O)O[C@]13C` , what is its reported MIC?
Result string: 0.78

Query string: Given the compound `CC[C@H]1OC(=O)[C@H](C)[C@@H](O[C@H]2C[C@@](C)(OC)[C@@H](O)[C@H](C)O2)[C@H](C)[C@@H](O[C@@H]2O[C@H](C)C[C@H](N(C)C)[C@H]2O)[C@@]2(C)C[C@@H](C)C(=O)[C@H](C)[C@H]3N(CC=CCO2)C(=O)O[C@]13C` , what is its reported MIC?
Result string: 0.05
